experiment: Oral bioavailability in monkey at 10 mg/kg; assay type: ADME, organism-based, Macaca mulatta; conditions: rhesus monkey, in vivo
attribute measured: bioavailability (%)
Quick note: give the figure in %, leave out the unit.

Query: Provide one value: measured bioavailability of `O=C(c1ccc2c(ccn2-c2ccc(F)cc2)c1)N1CC(N2CCN(C(=O)c3nccs3)CC2)C1`
Result: 82

###

assay: AUClast in rat at 10 mg/kg, po; assay type: ADME, organism-based; parameters: dose 10 mg/kg, route oral, time 0 - last; conditions: in vivo
attribute measured: AUC(0-t) (ng·h/mL)
Quick note: give the figure in ng·h/mL, leave out the unit.

Query: Provide one value: measured AUC(0-t) of `O=C(c1ccc2c(ccn2-c2ccc(F)cc2)c1)N1CC(N2CCN(C(=O)c3nccs3)CC2)C1`
Result: 3730

Numbers sourced from ChEMBL document CHEMBL4622904.
